- assayComment: Acute toxicity, oral, rat
- conditionNotes: in vivo, oral administration
measuredAttribute: LD50

[[record]]
compoundstructurestring = "Cl.O=c1[nH]nc(OCCCc2ccc(Cl)cc2)c(NCc2cccnc2)c1Br"
measuredvalue = "≥ 2000 mg/kg"


###

- assayComment: Acute toxicity, oral, dog
- conditionNotes: in vivo, oral administration
measuredAttribute: LD50

[[record]]
molecule = "Cl.O=c1[nH]nc(OCCCc2ccc(Cl)cc2)c(NCc2cccnc2)c1Br [compound A]"
measuredvalue = "≥ 2000 mg/kg"

